Measured TCF/Wnt firefly luciferase reporter signal of individual entries
# System: SW480
# protocol.text: TCF/Wnt firefly luciferase reporter signal relative to plate median (fraction of plate median); higher = higher Wnt reporter signal
# condition.label: 5 µM; treatment time 24 h; reporter: 7TFP
property.label: TCF/Wnt firefly luciferase reporter signal

{"compound": "CC(=O)N[C@@H](CC(=O)N[C@@H](CCC(=O)O)C(=O)O)C(=O)O", "val": 0.988}
{"compound": "OCC(O)C(O)C(O)C(O)C(O)CO (configuration not stated)", "val": 1.02}
{"compound": "c1ccc(CC2=NCCN2)cc1", "val": 1.01}
{"compound": "C[C@@H]1CC[C@H]2C(C(=O)O)=C[C@@H]3[C@@H](O)C(C)(C)C[C@@]132", "val": 0.98}
{"compound": "CC(=O)OC/C=C(\\C)CC/C=C(\\C)CC/C=C(\\C)CC/C=C(\\C)CC/C=C(\\C)CC/C=C(\\C)CC/C=C(\\C)CC/C=C(\\C)CCC=C(C)C", "val": 1.02}
{"compound": "Cn1c(=O)[nH]c2[nH]cnc2c1=O", "val": 0.992}
{"compound": "CCOC(=O)n1ccn(C)c1=S", "val": 1.04}
{"compound": "CC1=CC(=O)CC(C)(C)C1(O)/C=C/C(C)=C\\C(=O)O (mixture of isomers) [ABSCISIC ACID (cis,trans; )]", "val": 1.18}
{"compound": "CCCn1c(=O)c2[nH]c(C3CCCC3)nc2n(CCC)c1=O", "val": 0.968}
{"compound": "CC(=O)O[C@@H]1C[C@@]2(C)C(CC[C@@H]2C(C)=O)C2CCC3=CC(=O)CC[C@]3(C)C21 (some centres not stated)", "val": 0.965}
{"compound": "CCOc1ccc2nc(S(N)(=O)=O)sc2c1", "val": 0.891}
{"compound": "CC1(C)O[C@@H]2C[C@H]3[C@@H]4CCC5=CC(=O)CC[C@]5(C)[C@@]4(F)[C@@H](O)C[C@]3(C)[C@]2(C(=O)CCl)O1", "val": 1.01}

----------
This listing pairs molecules with measured TCF/Wnt firefly luciferase reporter signal.
# Tested on: DLD1
# protocol.text: TCF/Wnt firefly luciferase reporter signal relative to plate median (fraction of plate median); higher = higher Wnt reporter signal
# condition.label: 5 µM; treatment time 24 h; reporter: 7TFP
property.label: TCF/Wnt firefly luciferase reporter signal

{"molecule": "CCN1CCCC(OC(=O)C(c2ccccc2)c2ccccc2)C1 (centres undefined)", "val": 0.941}
{"molecule": "CC(=O)[C@@]1(O)CC[C@H]2[C@@H]3C[C@H](C)C4=CC(=O)C=C[C@]4(C)[C@@]3(F)[C@@H](O)C[C@@]21C", "val": 0.985}
{"molecule": "CCC1(c2ccccc2)C(=O)NCNC1=O", "val": 0.978}
{"molecule": "CC12CC3CC(C)(C1)CC(N)(C3)C2", "val": 1.04}
{"molecule": "CC1(C)CC2C1CC[C@]1(CBr)CCC3C(CC(=O)O)C(=O)O[C@@]32C1 (some centres undefined) [BROMO-3-HYDROXY-4-(SUCCIN-2-YL)-CARYOLANE gamma-LACTONE]", "val": 1.08}
{"molecule": "Cc1cccc(C)c1OCC(C)N (centres undefined)", "val": 1.19}
{"molecule": "CN(C)CCOC(c1ccccc1)c1ccccc1.Cn1c(=O)c2[nH]c(Cl)nc2n(C)c1=O", "val": 1.14}
{"molecule": "CN1CCN(C2=Nc3ccccc3Oc3ccc(Cl)cc32)CC1", "val": 0.898}
{"molecule": "CCn1cc(C(=O)O)c(=O)c2cc(F)c(N3CCNCC3)cc21", "val": 1.19}

----------
# System: SW480
# protocol.text: TCF/Wnt firefly luciferase reporter signal relative to plate median (fraction of plate median); higher = higher Wnt reporter signal
# condition.label: 5 µM; treatment time 24 h; reporter: 7TFP
Parameter TCF/Wnt firefly luciferase reporter signal: see the listing below.
property.label: TCF/Wnt firefly luciferase reporter signal

{"molecule": "CCCCCCCCCCCCC[N+](C)(C)Cc1ccccc1", "val": 0.562}
{"molecule": "NS(=O)(=O)c1cc(C2(O)NC(=O)c3ccccc32)ccc1Cl (stereo not given)", "val": 0.981}
{"molecule": "CCCCCCOc1ccccc1C(N)=O", "val": 1.11}
{"molecule": "COc1ccc(C=CC(=O)O)cc1OC", "val": 0.987}
{"molecule": "Nc1c(Br)cc(Br)cc1CN[C@H]1CC[C@H](O)CC1", "val": 0.887}

----------
# Tested on: SW480
# protocol.text: TCF/Wnt firefly luciferase reporter signal relative to plate median (fraction of plate median); higher = higher Wnt reporter signal
# condition.label: 5 µM; treatment time 24 h; reporter: 7TFP
Classification field: enter 1 for TCF/Wnt firefly luciferase reporter signal values not below 1, 0 for values below it.

{"compound": "NS(=O)(=O)c1cc(C(=O)O)c(NCc2ccco2)cc1Cl", "label.value": 1}
{"compound": "CCOC(=O)c1ccc(N)cc1", "label.value": 0}
{"compound": "COc1ccc(C(=O)c2ccccc2O)c(O)c1", "label.value": 1}
{"compound": "CN(C)c1ccc2nc3ccc(=[N+](C)C)cc-3sc2c1", "label.value": 1}
{"compound": "C[C@]12C=CC(=O)C=C1CC[C@@H]1[C@@H]2[C@@H](O)C[C@@]2(C)[C@H]1CC[C@]2(O)C(=O)COC(=O)CCC(=O)O", "label.value": 0}
{"compound": "CN1CCC(=C2c3ccccc3Sc3ccccc32)CC1", "label.value": 0}
{"compound": "O=C(O)c1ccccc1C(=O)Nc1ccc(S(=O)(=O)Nc2nccs2)cc1", "label.value": 1}
{"compound": "Oc1c(Cl)cc(Cl)c(Cl)c1Cc1c(O)c(Cl)cc(Cl)c1Cl", "label.value": 1}
{"compound": "C=C1CC[C@H](O)C/C1=C/C=C1\\CCC[C@]2(C)[C@@H]([C@H](C)CCCC(C)C)CC[C@@H]12", "label.value": 0}
{"compound": "CC1=CCc2c(cc3oc(C)cc(=O)c3c2O)OC1", "label.value": 1}
{"compound": "CO/N=C(\\C(=O)N[C@@H]1C(=O)N2C(C(=O)O)=C(CSc3nc(=O)c(O)nn3C)CS[C@H]12)c1csc(N)n1", "label.value": 0}
{"compound": "O=C(CCc1ccc(O)cc1)c1c(O)cc(O)cc1O[C@@H]1OC(CO)[C@@H](O)[C@@H](O)C1O (some centres undefined)", "label.value": 1}
{"compound": "O=[N+]([O-])c1cccc2c(Br)[nH]nc12", "label.value": 0}
{"compound": "O=c1[nH]c(=O)n([C@H]2C[C@H](O)[C@@H](CO)O2)cc1C(F)(F)F", "label.value": 0}
{"compound": "CNCCCC12CCC(c3ccccc31)c1ccccc12", "label.value": 1}
{"compound": "NC(=O)N1c2ccccc2CC(=O)c2ccccc21", "label.value": 1}
{"compound": "CCCC(=O)O[C@]1(C(=O)CO)CC[C@H]2[C@@H]3CCC4=CC(=O)CC[C@]4(C)[C@H]3[C@@H](O)C[C@@]21C", "label.value": 0}
{"compound": "COc1cc([S+](C)[O-])ccc1-c1nc2cccnc2[nH]1 (centres undefined)", "label.value": 0}

----------
# Tested on: SW480
# protocol.text: cell viability (CellTiter-Glo) relative to plate median (fraction of plate median); higher = more viable cells
# condition.label: 5 µM; treatment time 24 h; reporter: 7TFP
property.label: cell viability

{"query.smiles": "O=c1cc(-c2ccc(O)cc2)oc2cc(O[C@@H]3O[C@H](CO)[C@@H](O)[C@H](O)[C@H]3O)cc(O)c12", "test.target": "SW480", "val": 1}
{"query.smiles": "C[C@]12CCC(=O)C=C1CC[C@@H]1[C@@H]2[C@@H](O)C[C@@]2(C)[C@H]1CC[C@]2(O)C(=O)CO", "test.target": "SW480", "val": 1.04}
{"query.smiles": "O=c1c(O)cccc2cc(O)c(O)c(O)c12", "test.target": "SW480", "val": 1.01}
{"query.smiles": "CC(=O)O[C@H]1C[C@@]2(C)[C@@H](C[C@@H](O)[C@H]3[C@@]4(C)CC[C@@H](O)[C@@H](C)[C@@H]4CC[C@@]32C)/C1=C(\\CCC=C(C)C)C(=O)O", "test.target": "SW480", "val": 1.04}
{"query.smiles": "CC1(C)S[C@@H]2[C@H](NC(=O)COc3ccccc3)C(=O)N2[C@H]1C(=O)O", "test.target": "SW480", "val": 1.01}
{"query.smiles": "O=C(O)C1=CC(=C(c2ccc(O)c(C(=O)O)c2)c2ccc(O)c(C(=O)O)c2)C=CC1=O", "test.target": "SW480", "val": 1.06}
